- Subject Of Test: D(3) dopamine receptor (Homo sapiens, UniProt P35462)
- Sequence (P35462 whole entry): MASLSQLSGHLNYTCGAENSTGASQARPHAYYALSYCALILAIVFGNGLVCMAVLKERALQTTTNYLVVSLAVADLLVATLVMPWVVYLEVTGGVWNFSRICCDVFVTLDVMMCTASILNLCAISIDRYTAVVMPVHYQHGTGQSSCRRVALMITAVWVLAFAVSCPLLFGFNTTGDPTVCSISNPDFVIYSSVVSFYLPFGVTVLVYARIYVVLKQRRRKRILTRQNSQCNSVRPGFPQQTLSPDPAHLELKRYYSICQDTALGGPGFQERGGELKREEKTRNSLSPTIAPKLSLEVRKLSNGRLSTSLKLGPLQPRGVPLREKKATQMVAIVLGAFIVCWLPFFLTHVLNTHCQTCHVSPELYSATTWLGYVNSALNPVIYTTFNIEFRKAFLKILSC
- Assay Remarks: Agonist activity at recombinant human dopamine D3 receptor expressed in CHO-K1 cells assessed as […] in cAMP accumulation after 30 mins by HTRF assay relative to dopamine
- Type: functional, cell-based
// reported Efficacy per item

| Test Smiles | Obs Value |
| --- | --- |
| O=C(NCCCN1CCN(c2cccc(Cl)c2Cl)CC1)Oc1ccc2c(c1)[nH]c1ccccc12 | > 90% |

[Q] What value of measured Efficacy is listed for O=C(NCCCCN1CCN(c2ccccc2C(F)(F)F)CC1)Oc1ccc(-c2ccccc2)cc1 ?
[A] > 90%

[Q] What value of measured Efficacy is listed for O=C(NCCCCN1CCN(c2cccc(Cl)c2Cl)CC1)Oc1ccc2c(c1)[nH]c1ccccc12 ?
[A] > 90%

Provenance of the data: ChEMBL document CHEMBL4007414
